The compounds listed here are annotated with their pIC50.
target-system: IDH2 R140Q (Homo sapiens (Human), UniProt P48735, R140Q)
Sequence (P48735 40-452 R140Q): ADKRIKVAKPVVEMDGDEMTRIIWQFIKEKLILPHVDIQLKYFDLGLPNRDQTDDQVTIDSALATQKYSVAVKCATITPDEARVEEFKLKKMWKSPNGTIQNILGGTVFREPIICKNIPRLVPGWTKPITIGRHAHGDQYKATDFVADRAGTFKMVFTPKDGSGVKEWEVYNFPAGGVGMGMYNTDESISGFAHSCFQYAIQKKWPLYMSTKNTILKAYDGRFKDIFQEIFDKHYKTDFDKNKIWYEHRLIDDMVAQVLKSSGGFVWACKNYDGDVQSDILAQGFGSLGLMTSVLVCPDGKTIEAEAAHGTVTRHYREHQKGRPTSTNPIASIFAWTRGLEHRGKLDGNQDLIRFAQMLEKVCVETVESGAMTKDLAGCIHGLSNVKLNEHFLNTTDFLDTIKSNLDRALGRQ
procedure-summary: In vitro assay for IDH2m R140Q inhibitors, cofactor depletion assay
Format: biochemical
protocol-conditions: IDH2 R140Q enzyme
pIC50: −log10 of the molar value.

- CCC(Nc1nc(NC(CC)C(F)(F)F)nc(-c2cccc(Cl)n2)n1)C(F)(F)F (stereo not drawn) [Compound 103]: > 7.30
- N#CC1(c2cc(Nc3nc(NC4CC5(C4)CC(F)(F)C5)nc(-c4cccc(C(F)(F)F)n4)n3)ccn2)CC1 [Compound 229]: > 7.30
- Fc1ccc2c(c1)CC(Nc1nc(NC3CCC(F)(F)C3)nc(-c3cccc(C(F)(F)F)n3)n1)C2 (stereo not drawn) [Compound 150]: > 7.30
- C[C@@H](Nc1nc(NC2(c3ccccc3)CC2)nc(-c2cccc(C(F)(F)F)n2)n1)C1CC1 [Compound 30]: 7.00 to 7.30

Kindly consider the entry below.
Form field pIC50 for item CC[C@H](Nc1nc(N[C@@H](CC)C(F)(F)F)nc(-n2ccc(C(F)(F)F)n2)n1)C(F)(F)F [Compound 363] on IDH2 R140Q (Homo sapiens (Human), UniProt P48735, R140Q): 7.00 to 7.30

====

target-system: IDH1 wt/IDH1 R132H heterodimer (Homo sapiens (Human), UniProt O75874, R132H)
Sequence (O75874 whole entry R132H): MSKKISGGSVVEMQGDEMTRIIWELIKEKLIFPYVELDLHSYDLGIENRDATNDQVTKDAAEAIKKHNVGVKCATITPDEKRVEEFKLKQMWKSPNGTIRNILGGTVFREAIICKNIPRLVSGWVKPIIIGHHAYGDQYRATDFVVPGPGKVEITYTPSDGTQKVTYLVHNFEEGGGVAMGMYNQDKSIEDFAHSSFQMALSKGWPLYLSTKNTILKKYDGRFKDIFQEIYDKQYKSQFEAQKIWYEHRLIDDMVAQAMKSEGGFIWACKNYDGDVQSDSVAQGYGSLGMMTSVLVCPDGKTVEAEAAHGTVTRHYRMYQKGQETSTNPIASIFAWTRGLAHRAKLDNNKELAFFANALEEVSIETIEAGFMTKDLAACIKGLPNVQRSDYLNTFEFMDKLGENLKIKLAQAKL
Sequence (O75874 whole entry, stated change not applied): as the sequence (O75874 whole entry R132H) above, with H132R counted along it
procedure-summary: In vitro assay for IDH1m R132H inhibitors, IDH1 wt/IDH1 R132H heterodimer, NADPH depletion (diaphorase/resazurin)
Format: biochemical
protocol-conditions: IDH1 wt/R132H heterodimer, NADPH/NADP, not saturated; read-out: IDH1 wt/R132H NADPH/NADP IC50 not saturated
The compounds listed here are annotated with their IC50.

* FC1(F)CCC(Nc2nc(Nc3cc4ccccc4[nH]3)nc(-c3cccc(C(F)(F)F)n3)n2)C1 (stereo not shown) | 100 to 1000 nM
* CC(F)(F)c1nc(-c2nc(NC3CCC(F)(F)C3)nc(NC3CCC(F)(F)C3)n2)cs1 (stereo not shown) | < 50 nM
* C[C@@H](Nc1nc(NC2CC3(C2)CC(F)(F)C3)nc(-c2cccc(C(F)(F)F)n2)n1)C1CC1 | < 50 nM
* Cc1nsc(-c2nc(NC3CCC(F)(F)CC3)nc(NC3CCC(F)(F)CC3)n2)n1 | > 1000 nM
* CC(C)(C)Nc1nc(Nc2ccnc(C(C)(F)F)c2)nc(-c2nccc(C(F)(F)F)n2)n1 | 100 to 1000 nM
* N#CC1(c2cc(Nc3nc(NCC(F)(F)F)nc(-c4cccc(Cl)n4)n3)ccn2)CC1 | < 50 nM

Given item `CC(C)(O)CNc1nc(Nc2cc(F)cc(C#N)c2)nc(-c2cccc(C(F)(F)F)n2)n1` , the value recorded as its IC50 is 50 to 100 nM

Given item FC1(F)CCC(Nc2nc(NC3CCN(c4ncccn4)C3)nc(-c3cccc(C(F)(F)F)n3)n2)C1 (stereo not shown) , the value recorded as its IC50 is < 50 nM

Given item `Cc1cccc(-c2nc(NC3CCC(F)(F)CC3)nc(NC3CCC(F)(F)CC3)n2)n1` , the value recorded as its IC50 is 100 to 1000 nM

Given item `C[C@@H](Nc1nc(NC2CCC(F)(F)CC2)nc(-c2cccc(C(F)(F)F)n2)n1)C1CC1` , the value recorded as its IC50 is < 50 nM

Given item `COc1ccc(F)c(-c2nc(NC3CCC(F)(F)CC3)nc(NC3CCC(F)(F)CC3)n2)n1` , the value recorded as its IC50 is > 1000 nM

Given item `C[C@@H](Nc1nc(N[C@H](C)C2CC2)nc(-c2cccnc2)n1)C1CC1` , the value recorded as its IC50 is > 1000 nM

Given item FC1(F)CCC(Nc2nc(Nc3ccnc(-c4ccccc4)c3)nc(-c3cccc(C(F)(F)F)n3)n2)C1 (stereo not shown) , the value recorded as its IC50 is < 50 nM

====

target-system: IDH1 wt/IDH1 R132H heterodimer (Homo sapiens (Human), UniProt O75874, R132H)
procedure-summary: In vitro assay for IDH1m R132H inhibitors, IDH1 wt/IDH1 R132H heterodimer, NADPH depletion (diaphorase/resazurin)
Type: biochemical
protocol-conditions: IDH1 wt/IDH1 R132H heterodimer, 300 μM NADP (saturated); read-out: IDH1 wt/R132H NADPH/NADP IC50 saturated
pIC50: −log10 of the molar value.
measurement-type: pIC50

// below: answered molecules
- CC[C@H](Nc1nc(N[C@@H](CC)C(F)(F)F)nc(-n2ccc(C(F)(F)F)n2)n1)C(F)(F)F [Compound 363]: > 7.30
- C[C@@H](Nc1nc(Nc2ccnc(C3(C#N)CC3)c2)nc(-c2cccc(C(C)(F)F)n2)n1)C(F)(F)F [Compound 348]: > 7.30

Kindly consider the entry below.
Given item FC1(F)CC[C@H](Nc2nc(Nc3ccnc(C(F)(F)F)c3)nc(-c3ccnc(C(F)(F)F)n3)n2)C1 [Compound 343] , the value recorded as its pIC50 is 6.00 to 7.00

====

The compounds listed here are annotated with their IC50.
target-system: IDH1 R132C (Homo sapiens (Human), UniProt O75874, R132C)
Sequence (O75874 whole entry R132C): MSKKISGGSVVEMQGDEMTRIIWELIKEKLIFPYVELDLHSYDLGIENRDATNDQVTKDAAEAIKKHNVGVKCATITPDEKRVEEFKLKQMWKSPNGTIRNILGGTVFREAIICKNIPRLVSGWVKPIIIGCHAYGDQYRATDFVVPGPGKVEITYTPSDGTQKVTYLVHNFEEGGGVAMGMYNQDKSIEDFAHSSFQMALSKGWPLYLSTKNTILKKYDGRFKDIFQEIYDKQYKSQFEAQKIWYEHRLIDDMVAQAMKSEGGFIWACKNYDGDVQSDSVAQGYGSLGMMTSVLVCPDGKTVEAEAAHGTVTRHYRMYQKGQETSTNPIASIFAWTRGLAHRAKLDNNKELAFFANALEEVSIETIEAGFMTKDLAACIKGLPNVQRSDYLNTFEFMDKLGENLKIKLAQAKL
procedure-summary: In vitro assay IDH1 R132C homodimer, NADPH depletion assay

* FC(F)(F)c1cccc(-c2nc(NC3CC4CC4C3)nc(NC3CC4CC4C3)n2)n1 (stereo not drawn) [Compound 36] | 50 to 100 nM
* CC(C)CNc1nc(NC(C)(C)C#N)nc(-c2cc(O)ccc2F)n1 [Compound 86] | > 1000 nM
* FC(F)(F)c1cccc(-c2nc(NCC3CCC3)nc(NCC3CCC3)n2)n1 [Compound 7] | > 1000 nM

Form field IC50 for item C[C@H](Nc1nc(N[C@H](C)C2CC2)nc(-c2cccc(C(F)(F)F)n2)n1)C1CC1 [Compound 34] on IDH1 R132C (Homo sapiens (Human), UniProt O75874, R132C): 50 to 100 nM

Form field IC50 for item COc1ccc(F)c(-c2nc(NC(C)C)nc(NC(C)(C)C#N)n2)c1 [Compound 32] on IDH1 R132C (Homo sapiens (Human), UniProt O75874, R132C): > 1000 nM

Form field IC50 for item CC(C#N)Nc1nc(N[C@H](C)C2CC2)nc(-c2cccc(C(F)(F)F)n2)n1 (stereo partly drawn) [Compound 40] on IDH1 R132C (Homo sapiens (Human), UniProt O75874, R132C): 50 to 100 nM

Form field IC50 for item CC(C)[C@H](C)Nc1nc(N[C@@H](C)C(C)C)nc(-c2cccc(C(F)(F)F)n2)n1 [Compound 17] on IDH1 R132C (Homo sapiens (Human), UniProt O75874, R132C): 50 to 100 nM

Form field IC50 for item C[C@H](Nc1nc(N[C@@H](C)C2CC2)nc(-c2cccc(C(F)(F)F)n2)n1)C1CC1 [Compound 33] on IDH1 R132C (Homo sapiens (Human), UniProt O75874, R132C): 50 to 100 nM

Form field IC50 for item C[C@@H](Nc1nc(N[C@@H]2C[C@H]2c2ccccc2)nc(-c2cccc(C(F)(F)F)n2)n1)C1CC1 [Compound 23] on IDH1 R132C (Homo sapiens (Human), UniProt O75874, R132C): 50 to 100 nM

====

target-system: IDH1 wt/IDH1 R132C heterodimer (Homo sapiens (Human), UniProt O75874, R132C)
Sequence (O75874 whole entry, stated change not applied, one chain of several): as the sequence (O75874 whole entry R132H) above, with H132R counted along it
procedure-summary: In vitro assay for IDH1m R132C inhibitors, IDH1 wt/IDH1 R132C heterodimer, NADPH depletion (diaphorase/resazurin)
protocol-conditions: NADPH/NADP
The molecules listed here are annotated with their IC50.

• FC1(F)CCC(Nc2nc(NC3CCN(c4ccccn4)C3)nc(-c3cccc(C(F)(F)F)n3)n2)C1 (stereo not shown) [Compound 222] = 0.05 to 0.1 µM
• CC(CC#N)Nc1nc(NC(C)CC#N)nc(-c2cccc(Cl)n2)n1 (stereo not shown) [Compound 271] = 0.1 to 1 µM
• C[C@@H](Nc1nc(N[C@H](C)C2CC2)nc(-c2cccnc2)n1)C1CC1 [Compound 92] = ≥ 1 µM
• CC(C)(C)OC(=O)N1CCC(Nc2nc(NC3CCC(F)(F)CC3)nc(-c3cccc(C(F)(F)F)n3)n2)CC1 [Compound 274] = 0.1 to 1 µM
• C[C@@H](Nc1nc(NC(C2CC2)C2CC2)nc(-c2cccc(C(F)(F)F)n2)n1)C1CC1 [Compound 193] = < 0.05 µM

Given item C[C@@H](Nc1nc(NC2CC3(C2)CC(F)(F)C3)nc(-c2cccc(C(F)(F)F)n2)n1)C1CC1 [Compound 58] , the value recorded as its IC50 is < 0.05 µM

Given item FC1(F)CC(Nc2nc(NC3CC(F)(F)C3)nc(-c3nccc(C(F)(F)F)n3)n2)C1 [Compound 256] , the value recorded as its IC50 is 0.05 to 0.1 µM

Given item CC(C)(C)Nc1nc(Nc2ccnc(C#N)c2)nc(-c2cccc(C(F)(F)F)n2)n1 [Compound 162] , the value recorded as its IC50 is < 0.05 µM

Given item FC1(F)CC(Nc2nc(NC3CC(F)(F)C3)nc(-c3nc(C(F)(F)F)cs3)n2)C1 [Compound 128] , the value recorded as its IC50 is < 0.05 µM

Given item CC(F)(F)c1cccc(-c2nc(NC3CC(F)(F)C3)nc(NC3CC(F)(F)C3)n2)n1 [Compound 187] , the value recorded as its IC50 is < 0.05 µM

Given item Fc1ccc([C@H]2C[C@@H](Nc3nc(N[C@H]4C[C@@H](c5ccc(F)cc5)C4)nc(-c4cccc(C(F)(F)F)n4)n3)C2)cc1 [Compound 272] , the value recorded as its IC50 is 0.1 to 1 µM

Given item N#Cc1cc(Nc2nc(NC3CC(F)(F)C3)nc(-c3cccc(C(F)(F)F)n3)n2)ccn1 [Compound 213] , the value recorded as its IC50 is < 0.05 µM

Given item CC(=O)N1CCC(Nc2nc(NC3CCC(F)(F)CC3)nc(-c3cccc(C(F)(F)F)n3)n2)CC1 [Compound 273] , the value recorded as its IC50 is 0.1 to 1 µM

Given item COc1ccc(F)c(-c2nc(NC3CCC(F)(F)CC3)nc(NC3CCC(F)(F)CC3)n2)n1 [Compound 321] , the value recorded as its IC50 is ≥ 1 µM

Given item N#Cc1cc(F)cc(Nc2nc(NC3CCC(F)(F)CC3)nc(-c3cccc(C(F)(F)F)n3)n2)c1 [Compound 164] , the value recorded as its IC50 is < 0.05 µM

Given item O=C(c1ccccc1)N1CCC(Nc2nc(NC3CCC(F)(F)C3)nc(-c3cccc(C(F)(F)F)n3)n2)C1 (stereo not shown) [Compound 263] , the value recorded as its IC50 is 0.1 to 1 µM

Given item Fc1cc(F)cc(Nc2nc(NC3CCC(F)(F)C3)nc(-c3cccc(C(F)(F)F)n3)n2)c1 (stereo not shown) [Compound 123] , the value recorded as its IC50 is < 0.05 µM

Given item FC1(F)CCC(Nc2nc(NC3CCC(F)(F)CC3)nc(-c3csc(C(F)(F)F)n3)n2)CC1 [Compound 223] , the value recorded as its IC50 is 0.05 to 0.1 µM

Given item C[C@@H](Nc1nc(Nc2ccnc(C3(C#N)CC3)c2)nc(-c2cccc(Cl)n2)n1)C1CC1 [Compound 167] , the value recorded as its IC50 is < 0.05 µM

Given item Cc1nc(-c2nc(NC3CC(F)(F)C3)nc(NC3CC(F)(F)C3)n2)co1 [Compound 301] , the value recorded as its IC50 is ≥ 1 µM

Given item FC1(F)CCC(Nc2nc(NC3CCNC3)nc(-c3cccc(C(F)(F)F)n3)n2)C1 (stereo not shown) [Compound 91] , the value recorded as its IC50 is ≥ 1 µM

Given item CC(C)(O)CNc1nc(Nc2cc(F)cc(F)c2)nc(-c2nccc(C(F)(F)F)n2)n1 [Compound 325] , the value recorded as its IC50 is ≥ 1 µM

Given item FC1(F)CCC(Nc2nc(NC3CCC(F)(F)CC3)nc(-c3c[nH]nc3C(F)(F)F)n2)CC1 [Compound 297] , the value recorded as its IC50 is 0.1 to 1 µM

Given item FC1(F)CCC(Nc2nc(NC3CCC(F)(F)C3)nc(-c3cccc(Cl)n3)n2)C1 (stereo not shown) [Compound 113] , the value recorded as its IC50 is < 0.05 µM

Given item FC(F)c1cccc(-c2nc(NC3CCC(F)(F)CC3)nc(NC3CCC(F)(F)CC3)n2)n1 [Compound 224] , the value recorded as its IC50 is < 0.05 µM
